Listed below: pKi values for each entry.
# target.entity: CYP2C9 (Homo sapiens, UniProt P11712)
# Sequence (P11712 whole entry): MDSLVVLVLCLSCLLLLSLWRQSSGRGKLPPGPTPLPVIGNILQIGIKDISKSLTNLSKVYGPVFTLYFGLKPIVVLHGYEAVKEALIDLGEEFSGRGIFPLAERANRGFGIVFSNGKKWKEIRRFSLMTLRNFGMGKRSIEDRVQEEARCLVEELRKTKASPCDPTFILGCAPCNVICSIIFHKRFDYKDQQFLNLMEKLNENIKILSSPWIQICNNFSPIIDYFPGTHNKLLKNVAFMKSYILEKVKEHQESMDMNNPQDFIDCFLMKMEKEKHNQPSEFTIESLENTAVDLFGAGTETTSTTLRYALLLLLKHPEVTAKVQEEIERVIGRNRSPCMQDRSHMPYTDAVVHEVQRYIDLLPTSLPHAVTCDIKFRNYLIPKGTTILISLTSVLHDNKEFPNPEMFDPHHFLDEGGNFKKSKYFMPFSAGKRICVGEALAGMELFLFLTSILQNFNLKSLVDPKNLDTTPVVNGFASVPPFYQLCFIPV
# experimental.protocol: Cytochrome P450 inhibition in human liver microsomes
Please note pKi is a logarithmic value: minus log10 of concentration in mol/L. Answer with that number alone.

| compound | pKi |
| --- | --- |
| COc1cc(C)c2c(Oc3cccc(C(F)(F)F)c3)c(OC)cc(NC(C)CCCN)c2n1 (centres unmarked) [Tafenoquine] | 5.00 |

For this compound ( C[C@H]1Cc2c([nH]c3cc(Cl)c(F)cc23)[C@@]2(N1)C(=O)Nc1ccc(Cl)cc12 [KAE609] ), measured pKi is 5.40

* * *

# target.entity: CYP2C9 (Homo sapiens, UniProt P11712)
# experimental.protocol: in vitro
# condition.label: microsomes
readout.label: IC50

| compound | target.entity | result |
| --- | --- | --- |
| COc1cc2[nH]c(C)c(-c3ccc(Oc4ccc(OC(F)(F)F)cc4)cc3)c(=O)c2cc1Cl [ELQ300] | CYP2C9 (Homo sapiens, UniProt P11712) | 7.5 µM |
| CC(C)(C)NCc1cc(C(C)(C)C)cc(-c2cnc(C(F)(F)F)c(F)c2)c1O [JPC3210] | CYP2C9 (Homo sapiens, UniProt P11712) | > 20 µM |
| CCN(CC)CCCNc1ccnc2cc(Cl)ccc12.Cl.Cl [AQ-13] | CYP2C9 (Homo sapiens, UniProt P11712) | > 20 µM |

Please examine the following record next.
For this compound ( CCc1nc(N)nc(N)c1OCCCOc1ccccc1CCC(=O)O.Cl [P218] ), measured IC50 is > 20 µM

* * *

# target.entity: CYP2C19 (Homo sapiens, UniProt P33261)
# Sequence (P33261 whole entry): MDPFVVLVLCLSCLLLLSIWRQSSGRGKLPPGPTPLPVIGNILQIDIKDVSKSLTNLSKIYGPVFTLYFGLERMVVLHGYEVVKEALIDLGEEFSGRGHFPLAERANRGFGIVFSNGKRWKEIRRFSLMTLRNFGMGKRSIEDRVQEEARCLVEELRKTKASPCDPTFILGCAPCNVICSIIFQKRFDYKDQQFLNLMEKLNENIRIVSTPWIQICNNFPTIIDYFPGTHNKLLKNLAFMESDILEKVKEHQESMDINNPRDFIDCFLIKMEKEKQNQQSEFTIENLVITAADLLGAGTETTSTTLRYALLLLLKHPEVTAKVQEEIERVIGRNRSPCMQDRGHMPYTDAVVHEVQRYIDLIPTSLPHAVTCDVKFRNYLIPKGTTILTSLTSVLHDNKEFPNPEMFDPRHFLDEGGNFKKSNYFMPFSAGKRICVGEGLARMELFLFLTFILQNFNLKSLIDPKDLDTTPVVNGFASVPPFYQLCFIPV
# experimental.protocol: Cytochrome P450 inhibition in human liver microsomes
readout.label: Ki

For this molecule ( `C[C@H]1Cc2c([nH]c3cc(Cl)c(F)cc23)[C@@]2(N1)C(=O)Nc1ccc(Cl)cc12` ), measured Ki is < 150 nM

* * *

# System: Caco-2 cell monolayers
# experimental.protocol: Bidirectional permeability across Caco-2 cell monolayers
# condition.label: matrix: human plasma, corrected for fu
readout.label: B–A Papp

| molecule | target.entity | readout.label | result |
| --- | --- | --- | --- |
| CC(C)(C)NCc1cc(C(C)(C)C)cc(-c2cnc(C(F)(F)F)c(F)c2)c1O | Caco-2 cell monolayers | B–A Papp | > 300 10^−6 cm/s |

For this molecule ( CN(C)C[c-]1cccc1CNc1ccnc2cc(Cl)ccc12.[Fe+2].c1cc[cH-]c1 (stereo not shown) ), measured B–A Papp is 24 ± 4.1 10^−6 cm/s

For this molecule ( CS(=O)(=O)O.FC1CCN(CCOc2ccc(C3CCC4(CC3)OOC3(OO4)C4CC5CC(C4)CC3C5)cc2)CC1 (stereo not shown) ), measured B–A Papp is > 300 10^−6 cm/s

For this molecule ( CC1(C)CC(O)(COc2ccc(C3CCC4(CC3)OOC3(O4)C4CC5CC(C4)CC3C5)cc2)CC(C)(C)N1 (stereo not shown) ), measured B–A Papp is > 300 10^−6 cm/s

For this molecule ( `COc1cc2[nH]c(C)c(-c3ccc(Oc4ccc(OC(F)(F)F)cc4)cc3)c(=O)c2cc1Cl` ), measured B–A Papp is > 300 10^−6 cm/s

For this molecule ( COc1cc(N[C@H](C)CCCN)c2nccc(C)c2c1Oc1ccc(Cl)c(Cl)c1 [NPC1161B] ), measured B–A Papp is > 300 10^−6 cm/s

For this molecule ( `CCN(CC)CCCNc1ccnc2cc(Cl)ccc12.Cl.Cl` ), measured B–A Papp is 32 ± 0.8 10^−6 cm/s

* * *

# experimental.protocol: In vitro metabolism (metabolic stability) in human liver microsomes
# condition.label: human, liver microsomes, pH 7.4, HLM CLint, human liver microsomes; average of n = 2 replicates; < 7 means < 15% loss over 60 min
readout.label: microsomal CLint at 1 µM (µL/min/mg)
Return type: number; implicit unit µL/min/mg.

For this compound ( `C[C@H]1[C@H](N2CCS(=O)(=O)CC2)O[C@@H]2O[C@@]3(C)CC[C@H]4[C@H](C)CC[C@@H]1[C@@]24OO3` ), measured microsomal CLint at 1 µM is 97.7

* * *

# experimental.protocol: physchem
# condition.label: pH 7.4
readout.label: logD

For this compound ( COc1cc(NC(C)CCCN)c2ncccc2c1 (stereo not shown) [Primaquine] ), measured logD is 0.54

* * *

# experimental.protocol: in vitro
# condition.label: human, microsomes, pH 7.4, Range HLM CLint
readout.label: microsomal CLint at 1 µM

| molecular.string | microsomal CLint at 1 µM |
| --- | --- |
| O=C(O)Cc1ccccc1Nc1c(Cl)cccc1Cl | 107 to 391 µL/min/mg |

Please examine the following record next.
For this molecule ( `CCOc1ccc(NC(C)=O)cc1` ), measured microsomal CLint at 1 µM is 13.3 to 31.1 µL/min/mg

* * *

# target.entity: CYP3A4 (Homo sapiens, UniProt P08684)
# Sequence (P08684 whole entry): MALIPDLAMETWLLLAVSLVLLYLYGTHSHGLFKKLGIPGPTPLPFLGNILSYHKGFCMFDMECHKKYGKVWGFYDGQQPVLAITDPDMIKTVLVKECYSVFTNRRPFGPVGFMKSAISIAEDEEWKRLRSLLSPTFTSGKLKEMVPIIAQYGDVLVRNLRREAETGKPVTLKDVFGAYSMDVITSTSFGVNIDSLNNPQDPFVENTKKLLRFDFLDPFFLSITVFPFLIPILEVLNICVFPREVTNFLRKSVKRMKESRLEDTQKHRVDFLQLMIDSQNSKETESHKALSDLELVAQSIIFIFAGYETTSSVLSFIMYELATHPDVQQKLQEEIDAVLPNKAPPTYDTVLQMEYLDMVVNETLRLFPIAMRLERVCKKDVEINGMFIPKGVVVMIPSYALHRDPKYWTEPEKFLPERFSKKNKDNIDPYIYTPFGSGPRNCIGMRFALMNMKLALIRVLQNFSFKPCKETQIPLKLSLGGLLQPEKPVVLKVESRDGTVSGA
# experimental.protocol: in vitro
# condition.label: human, microsomes, pH 7.4, CYP3A4 (midaz) % inhibition at max conc
Hi, to clarify the labels: Y covers inhibition at 20 µM from 30% upward, N covers anything below 30%.

These recorded examples may help you get a feel for the data.
| molecule | target.entity | assigned.category |
| --- | --- | --- |
| CC(C)(N)CNC(=O)C[C@H]1CC[C@]2(CC1)OO[C@]1(O2)C2CC3CC(C2)CC1C3 | CYP3A4 (Homo sapiens, UniProt P08684) | N |
| COc1ccc2nc3cc(Cl)ccc3c(Nc3cc(CN4CCCC4)c(O)c(CN4CCCC4)c3)c2n1 | CYP3A4 (Homo sapiens, UniProt P08684) | N |
| COc1cc(NC(C)CCCN)c2ncccc2c1 (stereo not drawn) | CYP3A4 (Homo sapiens, UniProt P08684) | Y |
| N#Cc1cc(NC(=O)[C@H]2c3ccccc3C(=O)N(CC(F)(F)F)[C@@H]2c2cccnc2)ccc1F | CYP3A4 (Homo sapiens, UniProt P08684) | Y |
| COc1cc(C)c2c(Oc3cccc(C(F)(F)F)c3)c(OC)cc(NC(C)CCCN)c2n1 (stereo not drawn) | CYP3A4 (Homo sapiens, UniProt P08684) | Y |

Alright, here's another molecule for you.
Form field: inhibition at 20 µM at least 30%? Entry: `CO[C@H]1O[C@@H]2O[C@@]3(C)CC[C@H]4[C@H](C)CC[C@@H]([C@H]1C)[C@@]24OO3` Y

* * *

# experimental.protocol: in vitro
# condition.label: human, Caco-2, pH 7.4
Listed below: Papp A→B values for each entry.
Return type: number; implicit unit ×10⁻⁶ cm/s.

| molecule | value.units | Papp A→B |
| --- | --- | --- |
| COc1cc(NC(C)CCCN)c2ncccc2c1 (centres unmarked) | ×10⁻⁶ cm/s | 29 |

Please examine the following record next.
For this molecule ( `CCc1nc(N)nc(N)c1-c1ccc(Cl)cc1` ), measured Papp A→B is 60

* * *

# System: human liver microsomes
# experimental.protocol: in vitro
readout.label: Unbound CLint (µL/min/mg)
Return type: number; implicit unit µL/min/mg.

Look over these answered cases.
| compound | Unbound CLint (µL/min/mg) |
| --- | --- |
| CC(C)(C)NCc1cc(C(C)(C)C)cc(-c2cnc(C(F)(F)F)c(F)c2)c1O [JPC3210] | 328 |
| O=C(NCCN1CCCC1)c1cc(-c2ccc(CN3CCOCC3)cc2)nc2ccc(F)cc12 [M5717] | 22.2 |
| CN(C)C[c-]1cccc1CNc1ccnc2cc(Cl)ccc12.[Fe+2].c1cc[cH-]c1 (stereo not drawn) [Ferroquine] | 108 |

Please examine the following record next.
For this compound ( CC(C)(C)NCc1cc(Nc2ccnc3cc(Cl)ccc23)c2c(c1O)CCCC2 [Naphthoquine] ), measured Unbound CLint is 68.6

* * *

# experimental.protocol: Solubility limited absorbable dose (SLAD) calculation with predicted human jejunal Peff
# condition.label: based on measured FaSSIF solubility
Listed below: Ssi (estimated solubility in the small intestine) values for each entry.
Return type: number; implicit unit µg/mL.

Look over these answered cases.
| molecule | measured.number |
| --- | --- |
| COc1cc2[nH]c(C)c(-c3ccc(Oc4ccc(OC(F)(F)F)cc4)cc3)c(=O)c2cc1Cl | 0.520 |
| CS(=O)(=O)O.FC1CCN(CCOc2ccc(C3CCC4(CC3)OOC3(OO4)C4CC5CC(C4)CC3C5)cc2)CC1 (centres unmarked) | 87.0 |

For this molecule ( `CC(C)(C)NCc1cc(Nc2ccnc3cc(Cl)ccc23)c2c(c1O)CCCC2` ), measured Ssi (estimated solubility in the small intestine) is 410

For this molecule ( `CC(C)(C)NCc1cc(C(C)(C)C)cc(-c2cnc(C(F)(F)F)c(F)c2)c1O` ), measured Ssi (estimated solubility in the small intestine) is 7.60

For this molecule ( CN(C)C[c-]1cccc1CNc1ccnc2cc(Cl)ccc12.[Fe+2].c1cc[cH-]c1 (centres unmarked) ), measured Ssi (estimated solubility in the small intestine) is 320
